The measured values listed here are drawn from ChEMBL document CHEMBL6074676.

TARGET OF ASSAY: Cytochrome P450 3A4 (Homo sapiens, UniProt P08684)
Sequence (P08684 whole entry): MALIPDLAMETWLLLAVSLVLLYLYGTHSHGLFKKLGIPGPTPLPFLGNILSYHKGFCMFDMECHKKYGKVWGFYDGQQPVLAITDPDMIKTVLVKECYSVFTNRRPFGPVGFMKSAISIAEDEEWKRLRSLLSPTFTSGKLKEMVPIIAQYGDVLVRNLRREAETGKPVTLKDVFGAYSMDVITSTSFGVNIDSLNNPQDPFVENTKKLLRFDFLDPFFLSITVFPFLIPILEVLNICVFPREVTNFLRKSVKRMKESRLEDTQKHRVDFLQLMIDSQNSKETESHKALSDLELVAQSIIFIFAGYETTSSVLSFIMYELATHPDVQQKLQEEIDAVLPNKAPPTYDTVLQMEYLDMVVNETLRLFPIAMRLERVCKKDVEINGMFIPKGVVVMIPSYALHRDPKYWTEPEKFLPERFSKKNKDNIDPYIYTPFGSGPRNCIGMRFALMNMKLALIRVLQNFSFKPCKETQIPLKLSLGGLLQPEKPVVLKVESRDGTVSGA
ASSAY NAME: Inhibition of CYP3A4 in human liver microsomes
Format: ADME, Microsome
EXPERIMENTAL ENDPOINT: IC50 (µM)
// units = µM; emit number, no label

IN: Give a short answer stating reported IC50 for Cc1cc(C)c(-c2ncc3c(cc(CN4CC[C@H](N)C4)n3C(C)C)c2-c2ccc(C#N)c(F)c2)cc1C .
OUT: 4.53

---

System: NCI-H526
ASSAY NAME: Antiproliferative activity against human NCI-H526 cells assessed as inhibition of cell growth incubated for 240 hrs by MTS assay
Format: functional, cell-based
REPORTED CONDITIONS: NCI-H526, 240 h
EXPERIMENTAL ENDPOINT: IC50 (nM)
// units = nM; emit number, no label

IN: Give a short answer stating reported IC50 for COc1ccc(-c2c(-c3ccc(C#N)c(F)c3)nc(N3CCC(N)CC3)n(C)c2=O)cc1F .
OUT: 10

---

EXPERIMENTAL ENDPOINT: pIC50
Scale note: pIC50 = -log10(concentration in M).

IN: Please respond with reported pIC50 (system Cytochrome P450 2D6 (Homo sapiens, UniProt P10635)) for Cc1cc(C)c(-c2ncc3c(cc(CN4CC[C@H](N)C4)n3CC(F)(F)F)c2-c2ccc(C#N)c(F)c2)cc1C .
OUT: 4.69

---

TARGET OF ASSAY: Cytochrome P450 3A4 (Homo sapiens)
ASSAY NAME: Inhibition of CYP3A4 in human liver microsomes
Format: ADME, Microsome
REPORTED CONDITIONS: read-out: IC50
EXPERIMENTAL ENDPOINT: pIC50
Scale note: pIC50 = -log10(concentration in M).

IN: Please respond with reported pIC50 (system Cytochrome P450 3A4 (Homo sapiens)) for Cc1ccc(-c2ncc3c(cc(CN4CC[C@H](N)C4)n3C(C)C)c2-c2ccc(C#N)c(F)c2)cc1C .
OUT: 5.02

IN: Please respond with reported pIC50 (system Cytochrome P450 3A4 (Homo sapiens)) for Cc1cc(-c2ncc3c(cc(CN4CC[C@H](N)C4)n3C(C)C)c2-c2ccc(C#N)c(F)c2)cc(C)c1C .
OUT: 5.30

IN: Please respond with reported pIC50 (system Cytochrome P450 3A4 (Homo sapiens)) for Cc1cc(C)c(-c2ncc3c(cc(CN4CC[C@H](N)C4)n3CC(F)(F)F)c2-c2ccc(C#N)c(F)c2)cc1C .
OUT: 5.11

IN: Please respond with reported pIC50 (system Cytochrome P450 3A4 (Homo sapiens)) for Cc1ccc(-c2ncc3c(cc(CN4CC[C@H](N)C4)n3CC(F)F)c2-c2ccc(C#N)c(F)c2)cc1C .
OUT: 4.68

---

EXPERIMENTAL ENDPOINT: IC50 (µM)
// units = µM; emit number, no label

IN: Please respond with reported IC50 (system UniProt P33261) for Cc1ccc(-c2ncc3c(cc(CN4CC[C@H](N)C4)n3CC(F)F)c2-c2ccc(C#N)c(F)c2)cc1C .
Sequence (P33261 whole entry): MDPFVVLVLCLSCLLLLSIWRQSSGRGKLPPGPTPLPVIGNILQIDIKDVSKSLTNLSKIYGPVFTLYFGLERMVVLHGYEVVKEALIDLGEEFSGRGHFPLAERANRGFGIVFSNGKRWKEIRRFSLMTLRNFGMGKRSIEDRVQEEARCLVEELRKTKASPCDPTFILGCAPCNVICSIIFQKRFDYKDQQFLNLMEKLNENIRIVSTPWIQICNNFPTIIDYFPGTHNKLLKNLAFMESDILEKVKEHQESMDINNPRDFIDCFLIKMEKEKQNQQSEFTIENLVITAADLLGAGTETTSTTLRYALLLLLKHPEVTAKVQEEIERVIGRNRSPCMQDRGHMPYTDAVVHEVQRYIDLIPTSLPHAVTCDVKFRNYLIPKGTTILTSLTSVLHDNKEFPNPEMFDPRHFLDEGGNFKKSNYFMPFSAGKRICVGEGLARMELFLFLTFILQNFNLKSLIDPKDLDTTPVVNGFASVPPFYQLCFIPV
OUT: 25.8

---

ASSAY NAME: Upregulation of CD86 mRNA expression level in human MV4-11 cells measured after 24 hrs by RT-qPCR analysis
Assay type: functional, cell-based
REPORTED CONDITIONS: MV4-11, 24 h
EXPERIMENTAL ENDPOINT: pEC50
Scale note: pEC50 = -log10(concentration in M).

IN: Give a short answer stating reported pEC50 for COc1ccc(-c2c(-c3ccc(C#N)c(F)c3)nc(N3CCC(N)CC3)n(C)c2=O)cc1F .
OUT: 7.49
